For each of the molecules below, state its GI50.
# Tested on: NCI-H522 lung
# Experiment description: NCI tumour cell line growth inhibition, 48 h

Q. Please look up its GI50: "Cn1cc(-c2ccc(CNc3cc(-c4cnc5cc(OCCCN6CCCC6)ccn45)ncn3)cc2)cn1"
A. 18.6 µM

Q. Returns the measured GI50 for the input molecule. Input: C/C1=C\CC[C@@](C)(O)[C@@H]2CC3[C@@H](OC(=O)C34CC4)[C@@H](O2)[C@H](C)CCC1 (some centres undefined)
A. 12.7 µM

Q. Fill in the blank: the reported GI50 of "COc1cc2cc(Oc3ccc(NC(=O)c4ccc(Cl)c(C(F)(F)F)c4)cc3)c(C)nc2cc1OC" is ____.
A. 8.78 µM

Q. Endpoint output: GI50 of CCN1C(=O)N(CC)C2C1NN=c1s/c(=C3\C(=O)N(C)c4ccccc43)c(=O)n12 (centres undefined) . Value?
A. 0.609 µM

====

# System: A498 renal
# Experiment description: NCI tumour cell line growth inhibition, 48 h
Kindly supply the reported log10 TGI values for the records listed here.
Values reflect log10 of reported TGI (µM).

Q. Tell me the measured log10 TGI of "O=C(O)c1cc2c(s1)C(=O)c1sccc1C2=O" , please.
A. 1.49

Q. Requested field: log10 TGI. Item: CCN1C(=O)N(CC)C2C1NN=c1s/c(=C3\C(=O)N(C)c4ccccc43)c(=O)n12 (configuration not stated)
A. -0.04

Q. Query: log10 TGI; subject: CCC1CN2CCc3cc(OC)c(OC)cc3C2CC1CC1c2cc(OC)c(OC)cc2CCN1C(=O)CNC(=O)OC(C)(C)C (configuration not stated)
A. 1.75

Q. Requested read-out: log10 TGI. Entry: "COc1cnc2c(c1)C(=O)c1c-2n(CCCN2CCCC2)c(=O)c2cc(Cl)ccc12"
A. 0.78

Q. Item under review: "Fc1ccc(Nc2nc(NCCNc3ccnc4cc(Cl)ccc34)nc(N3CCOCC3)n2)cc1" . Reported log10 TGI?
A. 0.93

Q. Would you mind telling me what log10 TGI value was observed for "CC(C)(Br)C(=O)/C=C/c1ccccc1" ?
A. 1.57

====

# System: NCI/ADR-RES ovarian
# Experiment description: NCI tumour cell line growth inhibition, 48 h; in the data active = GI50 below about 0.43 µM; inactive = the rest
Select the matching outcome among true (active), false (inactive)

Q. Which outcome was entered for the molecule "Fc1ccc(Nc2nccc(-c3c(-c4ccc(C(F)(F)F)cc4)nn4ncccc34)n2)cc1F" in this test?
A. false

Q. Tell me the recorded outcome of this test for "Cc1c(C)c2ccc(OC/C=C3\CCC(=O)O3)cc2oc1=O" .
A. false

Q. # outcome recorded in this test, key = "CN(C)c1ccc(N=Nc2c([O-])ccc3ccccc23)cc1.[C-]#[O+].[C-]#[O+].[Ir]"
A. false

Q. Any idea what this test logged for "COc1ccccc1-c1c(C)nn2c(NCc3ccccn3)cc(C)nc12" ?
A. false

Q. Could you check what this test reported for CC1=CC(=O)C(C(C)=Nc2ccccc2Cl)C(=O)O1 (stereo unspecified) ?
A. false

Q. Record request — test call for C=C[C@]1(C)C=C2C(=O)[C@@]3(O)OC[C@@]4(CCCC(C)(C)C43O)C2(O)C(O)C1 (stereo partly specified)
A. false

Q. Hello, I am checking results. What call was entered for N#CC1C(N)=NNC12Nc1ccccc1N2 (stereo unspecified) ?
A. false

Q. Per the records of this test, what outcome belongs to "COc1ccc2c(c1)nc(N)c1c3cccnc3cn21" ?
A. true

Q. Just curious, what result did "S=c1ssc(Sc2ccccn2)c1Cl" get here?
A. false

Q. # fetch the recorded call for "Cc1cn2c(/C=N/N/C(N)=N\N)c(-c3ccc(Cl)c([N+](=O)[O-])c3)nc2s1" here
A. false

Q. What was the test verdict on "Cn1cc(-c2ccc3c(c2)CCN3C(=O)Cc2cccc(C(F)(F)F)c2)c2c(N)ncnc21" ?
A. false

Q. Fill in: this test's call for O=c1[nH]cnc2c(C3OC(CO)C(O)C3O)scc12 (stereo unspecified) is ___
A. false

Q. Hello, I am checking results. What call was entered for "Cn1cc(-c2ccc(CNc3cc(-c4cnc5cc(OCCCN6CCCC6)ccn45)ncn3)cc2)cn1" ?
A. false

Q. What did this assay record as the result for COc1ccc(/C=C2\CCCC3=C2NC(C)=NC3c2ccc(OC)c(OC)c2)cc1OC (stereo unspecified) ?
A. false

Q. Check the results log: what was the call for "O=c1oc2ccc(Cl)cc2c(=O)n1-c1ccc(I)cc1F" ?
A. true

Q. Can you look up the reported call for "CS(=O)(=O)Nc1cc(-c2ccc3ncnc(Nc4ccc5c(cnn5Cc5ccc(F)cc5)c4)c3c2)cnc1Cl" for me?
A. false

Q. Each molecule tested received a call. Report the one for "CCOC(=O)c1c(C)n(Cc2ccc(Cl)cc2Cl)c2c1cc1oc(=O)c(=O)n3c(Cc4ccccc4)nc2c13" .
A. false

Q. Name the outcome recorded for "Fc1ccc(Nc2nc(NCCNc3ccnc4cc(Cl)ccc34)nc(N3CCOCC3)n2)cc1" in the assay.
A. false

Q. For "NCc1ccc(-n2c(-c3nonc3N)nc3cnccc32)cc1" , which call appears in the assay record?
A. false

Q. Per the records of this test, what outcome belongs to "CCc1c2c(nc3cccc(N)c13)-c1cc3c(c(=O)n1C2)COC(=O)[C@]3(O)CC" ?
A. true

Q. Give the logged outcome of this assay for the following molecule: "CCOC(=O)c1cnn(-c2ccnc3c(C(F)(F)F)cccc23)c1N"
A. false
